- study system: AfPGMC353∗ (Aspergillus fumigatus, UniProt Q4WY53, C131S/C242S/C364S)
- Construct: Full length AfPGM; 6His-GST (N, cleaved yes)
- Sequence (Q4WY53 whole entry C131S/C242S/C364S): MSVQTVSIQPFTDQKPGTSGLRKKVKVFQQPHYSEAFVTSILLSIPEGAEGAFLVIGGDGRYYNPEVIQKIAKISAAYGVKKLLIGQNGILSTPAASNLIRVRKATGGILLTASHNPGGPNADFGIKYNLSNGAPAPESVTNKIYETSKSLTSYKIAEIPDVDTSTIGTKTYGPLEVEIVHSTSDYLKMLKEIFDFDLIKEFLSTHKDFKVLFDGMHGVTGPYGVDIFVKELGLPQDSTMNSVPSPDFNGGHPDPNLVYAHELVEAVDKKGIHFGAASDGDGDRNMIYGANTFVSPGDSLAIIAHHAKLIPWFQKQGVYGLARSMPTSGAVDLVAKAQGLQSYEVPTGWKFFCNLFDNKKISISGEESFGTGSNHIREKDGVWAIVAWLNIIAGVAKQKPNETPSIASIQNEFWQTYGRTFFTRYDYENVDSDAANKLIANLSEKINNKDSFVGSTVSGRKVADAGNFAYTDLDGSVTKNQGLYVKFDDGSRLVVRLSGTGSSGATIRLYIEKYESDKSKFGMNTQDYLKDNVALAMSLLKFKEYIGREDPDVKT
- protocol details: G6PDH coupled assay for PGM, AfPGMC353∗ variant (C353 the sole cysteine)
- study conditions: IC50 AfPGMC353, AfPGMC353∗ (all other cysteines mutated to serine) 5 nM, no preincubation
- Description: The reaction mixture contained MOPS–NaOH (pH 7.4; 50 mM), MgSO4 (1.5 mM), NADP^+ (1 mM), G6PDH (0.01 U) from L. mesenteroides, Glc-1P (500 μM), Glc-1,6-2P (50 μM), and enzyme (5 nM). The reaction was carried out at 25 °C for 6 min in a total volume of 100 μl. Formation of NADPH was detected in real-time (every 1.5 min), measuring fluorescence signal (excitation at 360 nm; emission at 460 nm). […]
Class field: derived from IC50; ranges bin A: < 10 µM; bin B: ≥ 10 µM and < 20 µM; bin C: ≥ 20 µM

>  <molecule>
O=C(c1ccc(-n2sccc2=O)cc1)N1CCOCC1 [ISFP18]

>  <category>
bin C

$$$$
>  <molecule>
O=c1ccsn1-c1c(F)cccc1F [ISFP20]

>  <category>
bin B

$$$$
>  <molecule>
O=c1ccsn1-c1cccc(CO)c1 [ISFP21]

>  <category>
bin C

$$$$
>  <molecule>
O=c1ccsn1-c1cccc2ccccc12 [ISFP17, 2-(naphthalen-1-yl)isothiazol-3(2H)-one]

>  <category>
bin B

$$$$
>  <molecule>
CC(C)OC(=O)c1ccc(-n2sccc2=O)cc1 [ISFP11]

>  <category>
bin A

$$$$
>  <molecule>
O=c1ccsn1-c1cccc(Cl)c1 [ISFP13, 2-(3-chlorophenyl)isothiazol-3(2H)-one]

>  <category>
bin B

$$$$
>  <molecule>
CC(=O)OCc1cccc(-n2sccc2=O)c1 [ISFP19]

>  <category>
bin C

$$$$
>  <molecule>
CC(C)(C)OC(=O)c1ccc(-n2sccc2=O)cc1 [ISFP8]

>  <category>
bin A

$$$$
>  <molecule>
O=c1ccsn1-c1cccc([N+](=O)[O-])c1 [ISFP12, 2-(3-nitrophenyl)isothiazol-3(2H)-one]

>  <category>
bin A

$$$$
>  <molecule>
O=c1ccsn1-c1ccccc1F [ISFP16, 2-(2-fluorophenyl)isothiazol-3(2H)-one]

>  <category>
bin C

$$$$
>  <molecule>
CCOC(=O)c1cc2cc(-n3sccc3=O)ccc2o1 [ISFP15]

>  <category>
bin B

$$$$
>  <molecule>
O=c1ccsn1-c1cccc(Cl)c1F [ISFP1]

>  <category>
bin A

$$$$
>  <molecule>
N#Cc1cccc(-n2sccc2=O)c1 [ISFP14, 3-(3-oxoisothiazol-2(3H)-yl)benzonitrile]

>  <category>
bin A

$$$$

* * *

- study system: AfPGM (Aspergillus fumigatus)
- Sequence (Q4WY53 whole entry): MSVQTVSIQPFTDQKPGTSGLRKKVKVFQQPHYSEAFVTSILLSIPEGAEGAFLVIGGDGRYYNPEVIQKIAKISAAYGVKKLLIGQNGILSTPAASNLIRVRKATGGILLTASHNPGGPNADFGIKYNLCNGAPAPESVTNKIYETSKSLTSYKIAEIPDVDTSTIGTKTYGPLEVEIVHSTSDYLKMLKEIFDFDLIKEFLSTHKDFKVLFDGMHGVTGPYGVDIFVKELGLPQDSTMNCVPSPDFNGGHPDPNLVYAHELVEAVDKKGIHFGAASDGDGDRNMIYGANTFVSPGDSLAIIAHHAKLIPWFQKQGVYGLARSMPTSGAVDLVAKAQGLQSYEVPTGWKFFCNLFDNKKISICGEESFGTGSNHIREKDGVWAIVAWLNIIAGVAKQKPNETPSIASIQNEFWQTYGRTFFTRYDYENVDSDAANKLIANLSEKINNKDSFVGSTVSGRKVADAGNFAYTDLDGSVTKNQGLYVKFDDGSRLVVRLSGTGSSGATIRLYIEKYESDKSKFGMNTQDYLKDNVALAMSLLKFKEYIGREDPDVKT
pIC50: −log10 of the molar value.
Please enter met where pIC50 is greater than or equal to 5, and not met where it is lower.

>  <smiles representation>
N#Cc1cccc(-n2sccc2=O)c1

>  <category>
met

$$$$
>  <smiles representation>
O=c1ccsn1-c1cccc(CO)c1

>  <category>
not met

$$$$
>  <smiles representation>
CC(C)(C)OC(=O)c1ccc(-n2sccc2=O)cc1

>  <category>
met

$$$$
>  <smiles representation>
O=c1ccsn1-c1cccc([N+](=O)[O-])c1

>  <category>
met

$$$$
>  <smiles representation>
CC(=O)OCc1cccc(-n2sccc2=O)c1

>  <category>
not met

$$$$
>  <smiles representation>
Cc1cc(=O)n(-c2cccc(Cl)c2)s1

>  <category>
met

$$$$
>  <smiles representation>
O=c1ccsn1-c1ccccc1F

>  <category>
not met

$$$$
>  <smiles representation>
O=C(c1ccc(-n2sccc2=O)cc1)N1CCOCC1

>  <category>
not met

$$$$
>  <smiles representation>
O=c1ccsn1-c1cccc2ccccc12

>  <category>
met

$$$$

Cited source for all entries: paper PMC9168620
